- testMethodNotes: basal RPMI8226 viability, no added stimulus, profiling panel, cell-based, calcein-AM fluorescence, 48 h, PK04 Diversity Set (AID 1166);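 note: cells grown under basal conditions without added stimulus; test concentration not given here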
- experimentalConditions: RPMI8226 myeloma viability, higher = more signal
Classes are defined on z-score with ranges category 1 (below -1), category 2 (-1 to below -0.3), category 3 (-0.3 or more)

>>> assignedlabel("COc1ccc(O[C@@H]2[C@H](O)CO[C@@H]2C=Cc2ccccc2)cc1")
"category 1"
>>> assignedlabel("C#CCCCON=C1C[C@@H](O)[C@@H](O)[C@@H]2[C@@H]3C(=O)N(CCC(=O)OCC)C(=O)[C@@H]3CC[C@H]12")
"category 3"
>>> assignedlabel("CO[C@@H]1COC(=O)CC=C[C@H](C)[C@H](OC)COC(=O)[C@H](C)NC(=O)CC=C[C@H]1C")
"category 3"
>>> assignedlabel("COC(=O)CC=C[C@@H](C)[C@@H](C=NOC[C@H]1O[C@H](c2ccccc2)C=C[C@@H]1Oc1ccc(OC)cc1)NS(=O)(=O)c1ccc(C)cc1")
"category 1"
>>> assignedlabel("O=c1n(-c2ccccc2)c(=O)n2n1CC[C@@H]1C(=NOCc3ccccc3)[C@H]3O[C@H]3[C@@H](O)[C@@H]12")
"category 3"
>>> assignedlabel("CCN1C(=O)[C@H]2[C@H]3[C@H](O)[C@H](O)CC(=O)[C@H]3CC[C@H]2C1=O")
"category 1"
>>> assignedlabel("COC(=O)CC=C[C@@H](C)[C@@H](C=NO[C@H](C)c1cn([C@H](CO)Cc2ccccc2)nn1)NS(=O)(=O)c1ccc(C)cc1")
"category 3"
>>> assignedlabel("CCCCC#C[C@@H]1C=C[C@H](OC(C)=O)[C@@H](COC(C)=O)O1")
"category 1"
>>> assignedlabel("CC(C)(C)N1C(=O)[C@H]2[C@H]3[C@H](O)[C@H](O)CC(=O)[C@@H]3CC[C@H]2C1=O")
"category 3"
>>> assignedlabel("O=C1C[C@@H](O)[C@@H](O)[C@@H]2[C@@H]3C(=O)N(C[C@@H]4CCCO4)C(=O)[C@@H]3CC[C@@H]12")
"category 1"
>>> assignedlabel("Cc1ccc(S(=O)(=O)n2c3ccccc3c3nnc(C(=O)c4ccccc4)nc32)cc1")
"category 3"
>>> assignedlabel("CO[C@H]1COC(=O)[C@@H](Cc2ccccc2)NC(=O)[C@@H](C)COC(=O)CCC[C@@H]1C")
"category 3"
>>> assignedlabel("COC(=O)CC=C[C@@H](C)[C@H](OCc1cccc(-c2ccccc2)c1)C1CCCCC1")
"category 2"
>>> assignedlabel("CCOC(=O)[C@H](Cc1ccccc1)NC(=O)CCC1CC(OC(=O)NCc2ccc3c(c2)OCO3)CC2(CCCC(COC(=O)NCCc3ccccc3OC)O2)O1 (stereo partly specified)")
"category 2"
>>> assignedlabel("CCOC(=O)CCN1C(=O)[C@H]2[C@H]3[C@H](O)[C@H](O)CC(=NOCC(C)C)[C@H]3CC[C@H]2C1=O")
"category 2"
>>> assignedlabel("CCCNC(=O)OC[C@H]1O[C@H](CCON=C(C)CCN2CCc3nc(CC)c(CC)cc3C2)C=C[C@@H]1Oc1ccc(OC)cc1")
"category 1"

###

- testMethodNotes: RPMI8226 myeloma cell viability, profiling panel, resazurin fluorescence, basal, 24 h, PK04 Diversity Set (AID 1180);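 note: RPMI8826 multiple myeloma cell line at 5000 cells per well; test concentration not given here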
- experimentalConditions: higher = more signal
measurementName: z-score

>>> experimentalresult("COc1ccc(C#C[C@@H]2C=C[C@H](OC(C)=O)[C@@H](COC(C)=O)O2)cc1")
-1.49
>>> experimentalresult("C=CC[C@@H]1C=C[C@H](ON=C(C)CCC(=O)OC[C@H]2O[C@H](c3ccccc3)C=C[C@@H]2Oc2ccc(OC)cc2)[C@@H](CO)O1")
-0.212
>>> experimentalresult("C#CCCCON=C1C[C@@H](O)[C@@H](O)[C@@H]2[C@@H]3C(=O)N(CC)C(=O)[C@@H]3CC[C@@H]12")
-0.244
